- TARGET OR SYSTEM: Nav 1.7 (Homo sapiens (Human), UniProt Q15858)
- Sequence (Q15858 whole entry): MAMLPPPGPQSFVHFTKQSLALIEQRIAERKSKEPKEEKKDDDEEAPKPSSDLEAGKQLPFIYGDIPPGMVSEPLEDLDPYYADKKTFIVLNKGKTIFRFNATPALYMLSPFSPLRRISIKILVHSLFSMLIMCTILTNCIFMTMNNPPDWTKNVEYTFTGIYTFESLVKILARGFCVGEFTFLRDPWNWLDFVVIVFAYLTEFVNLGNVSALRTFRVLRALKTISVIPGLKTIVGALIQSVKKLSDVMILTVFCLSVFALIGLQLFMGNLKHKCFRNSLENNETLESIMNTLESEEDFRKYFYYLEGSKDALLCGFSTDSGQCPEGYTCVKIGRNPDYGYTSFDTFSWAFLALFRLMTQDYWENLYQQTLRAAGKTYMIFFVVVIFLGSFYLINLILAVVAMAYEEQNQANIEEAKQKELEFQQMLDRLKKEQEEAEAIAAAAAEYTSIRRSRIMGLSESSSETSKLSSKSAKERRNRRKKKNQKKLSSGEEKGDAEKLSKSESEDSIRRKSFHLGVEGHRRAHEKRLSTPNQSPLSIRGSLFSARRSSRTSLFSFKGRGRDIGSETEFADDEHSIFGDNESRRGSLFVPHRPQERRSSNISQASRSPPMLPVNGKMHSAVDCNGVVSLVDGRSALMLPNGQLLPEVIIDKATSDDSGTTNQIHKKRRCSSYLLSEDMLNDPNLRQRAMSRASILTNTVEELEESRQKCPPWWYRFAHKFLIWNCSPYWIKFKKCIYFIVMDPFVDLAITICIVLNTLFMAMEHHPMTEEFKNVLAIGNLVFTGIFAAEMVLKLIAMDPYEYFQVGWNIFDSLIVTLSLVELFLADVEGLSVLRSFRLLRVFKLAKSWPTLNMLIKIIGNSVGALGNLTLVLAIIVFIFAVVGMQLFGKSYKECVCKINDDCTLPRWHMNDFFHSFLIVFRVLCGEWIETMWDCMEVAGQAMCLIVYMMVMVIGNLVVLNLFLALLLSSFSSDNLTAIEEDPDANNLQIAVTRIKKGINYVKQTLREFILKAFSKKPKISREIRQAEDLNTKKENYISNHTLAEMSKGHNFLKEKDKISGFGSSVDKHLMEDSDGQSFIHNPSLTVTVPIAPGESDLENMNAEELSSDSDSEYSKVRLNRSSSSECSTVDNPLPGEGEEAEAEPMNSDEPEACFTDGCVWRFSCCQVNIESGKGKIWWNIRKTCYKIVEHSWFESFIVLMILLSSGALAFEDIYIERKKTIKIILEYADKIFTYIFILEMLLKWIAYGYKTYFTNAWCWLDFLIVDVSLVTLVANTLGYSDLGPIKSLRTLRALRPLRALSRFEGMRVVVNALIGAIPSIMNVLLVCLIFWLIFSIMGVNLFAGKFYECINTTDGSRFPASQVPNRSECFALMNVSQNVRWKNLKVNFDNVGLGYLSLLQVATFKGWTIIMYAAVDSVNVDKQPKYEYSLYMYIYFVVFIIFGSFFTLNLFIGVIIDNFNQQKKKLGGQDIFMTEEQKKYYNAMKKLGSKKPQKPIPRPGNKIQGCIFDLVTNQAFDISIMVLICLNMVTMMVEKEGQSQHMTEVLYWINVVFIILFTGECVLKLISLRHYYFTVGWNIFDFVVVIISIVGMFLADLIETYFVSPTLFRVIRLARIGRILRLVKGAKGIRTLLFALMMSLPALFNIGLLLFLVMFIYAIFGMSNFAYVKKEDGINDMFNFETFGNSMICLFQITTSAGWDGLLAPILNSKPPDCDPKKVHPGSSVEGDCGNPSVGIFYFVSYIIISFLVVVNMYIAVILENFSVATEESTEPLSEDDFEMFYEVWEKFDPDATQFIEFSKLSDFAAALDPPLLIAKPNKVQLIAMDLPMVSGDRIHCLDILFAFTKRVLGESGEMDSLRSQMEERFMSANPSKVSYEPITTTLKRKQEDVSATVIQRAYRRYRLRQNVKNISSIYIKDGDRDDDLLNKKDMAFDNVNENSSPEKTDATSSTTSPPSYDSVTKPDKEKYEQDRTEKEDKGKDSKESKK
- EXPERIMENTAL PROTOCOL: Nav 1.7 in vitro PX assay (PatchXpress whole cell voltage clamp)
- Assay type: cell-based
- TEST CONDITIONS: 293 cells, human Nav1.7, partially inactivated state; read-out: Nav1.7 PX IC50 IP
Structures can show the parent of a compound that is named as a salt.
MEASURED PROPERTY: IC50 (µM)
Note: unit µM is implicit; provide only the numeric part.

stdin: Sample COc1cc(-c2cc(F)cc(F)c2)c(C#N)cc1-c1nccc2cc(S(=O)(=O)Nc3nncs3)ccc12 — what was its IC50?
stdout: 0.029

stdin: IC50 lookup needed for Cn1cncc1-c1cc(C(F)(F)F)ccc1-c1cccc2cc(S(=O)(=O)Nc3ccncn3)ccc12 , thanks.
stdout: 0.516

stdin: Name the recorded IC50 for Cc1cc(Cl)ccc1-c1ncnc2cc(S(=O)(=O)Nc3ncns3)ccc12 .
stdout: 0.996

stdin: Quick check: IC50 of COc1cc(-c2cccc(C(F)(F)F)c2)ccc1-c1nccc2cc(S(=O)(=O)Nc3ccncn3)ccc12 ?
stdout: 0.076

stdin: IC50 for COc1cc(-c2cccc(F)c2)c(C#N)cc1-c1nccc2cc(S(=O)(=O)Nc3ccon3)ccc12 ?
stdout: 0.122

stdin: Need IC50 of O=S(=O)(Nc1nccs1)c1ccc2c(-c3ccc(C(F)(F)F)cc3O)ncnc2c1 , thanks.
stdout: 4.09

stdin: What value of IC50 has been reported for the following compound? O=S(=O)(Nc1ncns1)c1ccc2c(N3CCCC3c3ccncc3)cccc2c1 (centres unmarked)
stdout: 0.238

stdin: What does the data say about its IC50? Entry: COc1cc(C(F)(F)F)ccc1-c1nc(C#N)cc2cc(S(=O)(=O)Nc3nccs3)ccc12
stdout: 0.45

stdin: Field request: IC50 | item: COc1ccccc1-c1cncc2cc(S(=O)(=O)Nc3nccs3)ccc12
stdout: 0.34

stdin: Recorded IC50 for COc1cc(-c2cc(F)cc(Cl)c2)ccc1-c1nccc2cc(S(=O)(=O)Nc3ccncn3)ccc12 , please?
stdout: 0.101

stdin: What value of measured IC50 is listed for COc1cc(-c2cc(F)cc(F)c2)ccc1-c1nccc2cc(S(=O)(=O)Nc3ccnc(C)n3)ccc12 ?
stdout: 0.813

stdin: Using the record for O=S(=O)(Nc1nccs1)c1ccc2c(-c3ccc(F)cc3OC3CCOCC3)nccc2c1 , report its IC50.
stdout: 7.11

stdin: Entry under review: O=S(=O)(Nc1ncns1)c1ccc2c(N3CCCC3c3cccnc3)cccc2c1 (centres unmarked) . Reported IC50?
stdout: 0.173

stdin: Using the record for COc1cc(-c2cc(F)cc(F)c2)ccc1-c1nccc2cc(S(=O)(=O)Nc3nncs3)ccc12 [Example 355, 2,2,2-TRIFLUOROACETATE] , report its IC50.
stdout: 0.048

stdin: Need IC50, item COc1cc(OC(F)(F)F)ccc1-c1nccc2cc(S(=O)(=O)Nc3ccncn3)ccc12
stdout: 0.914

stdin: Quick check: IC50 of COc1cc(-c2cc(C)cc(F)c2)ccc1-c1nccc2cc(S(=O)(=O)Nc3ccncn3)ccc12 ?
stdout: 0.063

stdin: Could you tell me which IC50 is on file for COc1cc(C(F)(F)F)ccc1-c1nccc2cc(S(=O)(=O)Nc3cocn3)ccc12 ?
stdout: 4.1

stdin: Consider the compound COc1ccc(-c2nccc3cc(S(=O)(=O)Nc4ccncn4)ccc23)c(OC)c1 and give its measured IC50.
stdout: 16.6

stdin: Fill in: IC50 of COc1cc(C(F)(F)F)ccc1-c1ccnc2c(C)c(S(=O)(=O)Nc3nccs3)ccc12 is ___
stdout: 6.87

stdin: // returns reported IC50 for input O=S(=O)(Nc1nccs1)c1ccc2c(-c3cc(F)ccc3OC(F)F)nccc2c1
stdout: 0.83

stdin: Can you share its IC50? I mean this compound: COc1cc(-c2ccc(C)cc2)ccc1-c1nccc2cc(S(=O)(=O)Nc3ccncn3)ccc12
stdout: 0.28

stdin: Which IC50 is listed for Cc1cnc(F)c(-c2nccc3cc(S(=O)(=O)Nc4nccs4)ccc23)c1 ?
stdout: 24.5

stdin: Look up IC50: COc1cc(C(F)(F)F)ccc1-c1ncnc2cc(S(=O)(=O)Nc3ncns3)ccc12
stdout: 0.15

stdin: Name the reported IC50 value associated with the compound COc1ccccc1-c1cccc2cc(S(=O)(=O)Nc3ncns3)ccc12
stdout: 0.0572

stdin: So what's the measured IC50 for this one? COc1cc(Cl)ccc1-c1ncc(C#N)c2cc(S(=O)(=O)Nc3nccs3)ccc12
stdout: 0.48

stdin: So what does the record say about IC50 for O=S(=O)(Nc1ncns1)c1ccc2c(C3CCCN3Cc3ccccc3)cccc2c1 (centres unmarked) ?
stdout: 2.22

stdin: # get_value(readout='IC50', item= COc1ccccc1-c1ncc(F)c2cc(S(=O)(=O)Nc3nccs3)ccc12 )
stdout: 0.251

stdin: Find the recorded IC50 belonging to COc1cc(C#N)ccc1-c1ncc(F)c2cc(S(=O)(=O)Nc3ncns3)ccc12 and report it.
stdout: 0.761

stdin: What does the data say about its IC50? Entry: COc1ccc(Cl)cc1-c1n[nH]c(=O)c2cc(S(=O)(=O)Nc3nccs3)ccc12
stdout: 0.124

stdin: Would you mind telling me what IC50 value was observed for COc1ccccc1-c1cncc2cc(S(=O)(=O)Nc3ccncn3)ccc12 [Example 287, HYDROCHLORIDE] ?
stdout: 4.15

stdin: Which value of IC50 has been reported for COc1cc(-c2cccc(F)c2)c(Cl)cc1-c1nccc2cc(S(=O)(=O)Nc3cnsn3)ccc12 in the records?
stdout: 0.109

stdin: Request the reported IC50 associated with N#Cc1cc(C(F)(F)F)ccc1-c1nccc2cc(S(=O)(=O)Nc3nccs3)ccc12
stdout: 1.39

Origin of measurements: patent US9012443B2
